Data credit: patent US20240246980A1

Overview of recorded IC50 for various molecules
molecular target: human MRGPRD (Homo sapiens); assay: MRGPRD antagonist activity, IP-One HTRF assay in CHO cells stably expressing human MRGPRD (versus 100 μM β-Alanine agonist)
Sequence (Q8TDS7 whole entry): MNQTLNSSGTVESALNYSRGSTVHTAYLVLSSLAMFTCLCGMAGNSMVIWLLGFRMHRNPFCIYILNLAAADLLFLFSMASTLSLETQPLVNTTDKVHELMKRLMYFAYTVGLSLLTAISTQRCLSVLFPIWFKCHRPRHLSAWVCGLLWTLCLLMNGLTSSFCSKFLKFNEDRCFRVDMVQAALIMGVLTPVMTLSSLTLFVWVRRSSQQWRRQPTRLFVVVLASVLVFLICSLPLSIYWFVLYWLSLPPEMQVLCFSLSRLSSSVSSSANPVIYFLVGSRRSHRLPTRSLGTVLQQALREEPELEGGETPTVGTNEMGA

Example entries begin here.
| MOLECULE | SUBJECT OF TEST | IC50 |
| --- | --- | --- |
| COc1cccc(-c2nc([C@@H]3CCCN(C(=O)Nc4ccccc4)C3)n3ccccc23)c1 [Compound 3-27] | human MRGPRD (Homo sapiens) | < 100 nM |
| CN(C)c1ccc(NC(=O)N2CCC[C@@H](c3nc(-c4ccc(S(C)(=O)=O)cc4)c4ccccn34)C2)cc1 [Compound 10-35] | human MRGPRD (Homo sapiens) | > 3000 nM |
| COc1cccc(-c2nn(C3CCCN(C(=O)Nc4cccc(N(C)C)c4)C3)c3ncccc23)c1 (stereo not drawn) [Compound 9-2] | human MRGPRD (Homo sapiens) | < 100 nM |

Quick check: IC50 of CN(C)c1ccc(NC(=O)N2CCC[C@@H](c3nc(-c4cnn(CC5CC5)c4)c4ccccn34)C2)cc1 [Compound 10-62] ? 1000 to 3000 nM

Quick check: IC50 of COc1cccc(-c2nc(C3CCCN(C(=O)c4ccc(F)cc4)C3)n3ccccc23)c1 (stereo not drawn) [Compound 12-3] ? 500 to 1000 nM

Quick check: IC50 of COc1cccc(-c2nc(C3CCN(C(=O)Nc4cccc(N(C)C)c4)CC3)n3ccccc23)c1 [Compound 5-8] ? 1000 to 3000 nM
